- measurement_description: Urinary concentrations of NNI compounds in wild raccoons
- Format: in vivo, raccoon, Procyon lotor
- conditions: raccoon urine, creatinine‐adjusted, n = 59
Entries annotated with measured GM ± SD urinary concentration
Answer format: numeric, μg/g creatinine implied, no suffix.

Previously resolved entries follow.
O=[N+]([O-])NC1=NCCN1Cc1ccc(Cl)nc1
0.08
C/C(=N\C#N)NCc1ccc(Cl)nc1
0.16
CN1COCN(Cc2cnc(Cl)s2)/C1=N\[N+](=O)[O-]
0.10
CN/C(=N/CC1CCOC1)N[N+](=O)[O-] (stereo not shown)
0.37
CN/C(=N\[N+](=O)[O-])NCc1cnc(Cl)s1
0.26
N#C/N=C1\SCCN1Cc1ccc(Cl)nc1
0.03

Next item in the queue.
query: What measured GM ± SD urinary concentration goes with C/C(=N\C#N)N(C)Cc1ccc(Cl)nc1 ?
result: 0.10
